- test_target: purified human autoBACE-2 (Homo sapiens (Human))
- Sequence (Q9Y5Z0 63-473): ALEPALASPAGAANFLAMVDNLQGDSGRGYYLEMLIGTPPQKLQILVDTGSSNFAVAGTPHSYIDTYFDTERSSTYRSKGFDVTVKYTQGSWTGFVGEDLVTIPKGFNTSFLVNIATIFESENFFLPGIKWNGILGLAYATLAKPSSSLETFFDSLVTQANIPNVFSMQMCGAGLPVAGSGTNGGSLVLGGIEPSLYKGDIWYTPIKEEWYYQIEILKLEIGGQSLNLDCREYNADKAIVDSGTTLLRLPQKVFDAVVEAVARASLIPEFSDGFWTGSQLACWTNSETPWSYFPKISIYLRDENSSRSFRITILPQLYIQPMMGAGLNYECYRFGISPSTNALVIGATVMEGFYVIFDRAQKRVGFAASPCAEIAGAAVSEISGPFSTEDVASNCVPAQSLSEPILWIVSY
Collected Ki values appear next to each entry.
Give just the number in nM; leave the unit off.

# annotated cases, reported Ki shown
- compound: "COC[C@H]1C[C@@H]2[C@](c3cc(Oc4cncc(OC)n4)ccc3F)(CO1)NC(=N)N(C)S2(=O)=O [Example 9]"
  unit_symbol: "nM"
  Ki: 9.4
- compound: "COC[C@H]1C[C@@H]2[C@](c3cc(OCC4CC4)ccc3F)(CO1)NC(=N)N(C)S2(=O)=O [Example 14]"
  unit_symbol: "nM"
  Ki: 2
- compound: "COC[C@H]1C[C@@H]2[C@](c3cc(Oc4cccc(C#N)c4)ccc3F)(CO1)NC(=N)N(C)S2(=O)=O [Example 17]"
  unit_symbol: "nM"
  Ki: 6.9

Measured Ki (purified human autoBACE-2 (Homo sapiens (Human))), entry C[C@H]1C[C@@H]2[C@](c3cc(Oc4ncncc4F)ccc3F)(CO1)NC(=N)N(C)S2(=O)=O [Example 4] : 5.9

Measured Ki (purified human autoBACE-2 (Homo sapiens (Human))), entry COC[C@H]1C[C@@H]2[C@](c3cc(Oc4ncc(F)cc4F)ccc3F)(CO1)NC(=N)N(C)S2(=O)=O [Example 12] : 18

Measured Ki (purified human autoBACE-2 (Homo sapiens (Human))), entry C[C@H]1C[C@@H]2[C@](c3cc(OCC45CC(C#N)(C4)C5)ccc3F)(CO1)NC(=N)N(C)S2(=O)=O [Example 8] : 28

Measured Ki (purified human autoBACE-2 (Homo sapiens (Human))), entry COC[C@H]1C[C@@H]2[C@](c3cc(Oc4cccnc4)ccc3F)(CO1)NC(=N)N(C)S2(=O)=O [Example 16] : 52

Measured Ki (purified human autoBACE-2 (Homo sapiens (Human))), entry C[C@H]1C[C@@H]2[C@](c3cc(Oc4ncc(F)cc4F)ccc3F)(CO1)NC(=N)N(C)S2(=O)=O [Example 5] : 13
